Sourced from the supplement of paper PMC5908809

- System: NK-YS (IL-2 2.5 ng/mL);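 note: normalised to DMSO-only wells as negative and benzethonium chloride as positive control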
- Test protocol: percent inhibition of viability; higher = more inhibition
- Test context: 72 h; 1000 nM
Mark True only when percent inhibition of viability stays strictly below 9%. Values equal to the cut-off are False.

Compound | Category label
Cn1cc(-c2ccc3nnc(C(F)(F)c4ccc5ncccc5c4)n3n2)cn1 (max concentration tested 10000 nM) | True

Query block: Dear reviewer, please state whether Nc1nc(N)c2nc(-c3cccc(O)c3)c(-c3cccc(O)c3)nc2n1 [TG100-115] (max concentration tested 10000 nM) has percent inhibition of viability strictly beneath 9%.
Result block: True

Query block: Dear reviewer, please state whether O=C(Cc1ccc(-c2ccc(OCCN3CCOCC3)cc2)cn1)NCc1ccccc1 [KX2-391] (max concentration tested 10000 nM) has percent inhibition of viability strictly beneath 9%.
Result block: False

Query block: Dear reviewer, please state whether CN1CCN(c2ccc3nc(-c4c(N)c5c(F)cccc5[nH]c4=O)[nH]c3c2)CC1 [Dovitinib] (max concentration tested 10000 nM) has percent inhibition of viability strictly beneath 9%.
Result block: True

Query block: Dear reviewer, please state whether CCc1cncnc1N1CCN(Cc2nc3ccc(C(F)(F)F)cc3[nH]2)CC1 (max concentration tested 10000 nM) has percent inhibition of viability strictly beneath 9%.
Result block: False

Query block: Dear reviewer, please state whether Cc1ccc(NC(=O)c2ccc(CN3CCN(C)CC3)cc2)cc1Nc1nc(-c2cccnc2)cs1 [Masitinib] (max concentration tested 10000 nM) has percent inhibition of viability strictly beneath 9%.
Result block: False
